Test system: Surinam grass
EXPERIMENTAL PROTOCOL: Test B pre-/postemergence herbicide test
Assay type: in vivo, Urochloa decumbens
STATED CONDITIONS: postemergence, 125 g ai/ha; visual rating, scale 0 (no effect) to 100 (complete control)
Consider the following molecules; for each one, report its Surinam Grass plant response rating.
Reply with just the number.

Lookup result for CC(C)NS(=O)(=O)c1cccc(NC(=O)c2cc(C(C)(C)C)nn2C)c1 ; measured Surinam Grass plant response rating: 10

Lookup result for CCc1nn(C(C)(C)C)cc1C(=O)Nc1cc(C(=O)N(CC)CC)ccc1F ; measured Surinam Grass plant response rating: 10

Lookup result for CCn1nc(C(C)(C)C)cc1C(=O)Nc1cccc(C(N)=O)n1 ; measured Surinam Grass plant response rating: 0

Lookup result for CCOC(=O)c1cccc(NC(=O)c2cn(C(C)(C)C)nc2CC)c1 ; measured Surinam Grass plant response rating: 10

Lookup result for CCCCOC(=O)c1cccc(NC(=O)c2cc(C(C)(C)C)nn2CC)c1 ; measured Surinam Grass plant response rating: 70

Lookup result for C=Cn1nc(C(C)(C)C)cc1C(=O)Nc1cccc(C(C)=O)c1 ; measured Surinam Grass plant response rating: 10

Lookup result for CCn1nc(C(C)(C)C)cc1C(=O)Nc1cccc(C(=O)OC(C)(C)C)c1 ; measured Surinam Grass plant response rating: 10

Lookup result for CCc1nc(C(C)(C)C)sc1C(=O)Nc1cccc(C(=O)NCC(F)(F)F)c1 ; measured Surinam Grass plant response rating: 10
